src = ChEMBL document CHEMBL5058577

Test system: Fibroblast
Method summary: Multiplex assay against human fibroblast
Assay type: toxicity, cell-based
Condition context: 12 h, 1 µM, compound concentration 1 uM, replicate 1
Readout kind: Total Cell Count

Here is how some compounds turned out for Total Cell Count.
Exam item: Please report the measured Total Cell Count for O=C(NCCO)c1cccc(-c2cc(Nc3ccc(OC(F)(F)F)cc3)ncn2)c1 tested on Fibroblast.
Marked response: 130

Exam item: Please report the measured Total Cell Count for CSCC[C@H](NC=O)C(=O)N[C@@H](CC(C)C)C(=O)N[C@@H](Cc1ccccc1)C(=O)O tested on Fibroblast.
Marked response: 182

Exam item: Please report the measured Total Cell Count for c1cc(OCCCN2CCCCC2)ccc1CN1CCCCC1 tested on Fibroblast.
Marked response: 181

# next compound below
Exam item: Please report the measured Total Cell Count for Cc1ccccc1C(=O)Nc1ccc(C(=O)N2CCCC(N(C)C)c3ccccc32)cc1.Cl (centres undefined) tested on Fibroblast.
Marked response: 167

====

Tested on: HEK-293T
Method summary: Multiplex assay against HEK293T
Type: toxicity, cell-based
Condition context: human, 12 h, 10 µM, compound concentration 10 uM, replicate 1
Let's look at some compounds and their measured Population Mitotic Cells (%).
Quick reminder: number only, in %, skip the unit.

Here is how some compounds turned out for Population Mitotic Cells (%).
Exam item: Entry CSc1ccccc1N1CCN(CCCCCC(=O)NC2CCCc3ccccc32)CC1.Cl (stereo unspecified) needs its Population Mitotic Cells (%) filled in; supply it.
Marked response: 20

Exam item: Entry CCNC1(C(N)=O)CCN(c2ncnc3c2nc(-c2ccccc2Cl)n3-c2ccc(Cl)cc2)CC1 needs its Population Mitotic Cells (%) filled in; supply it.
Marked response: 53

Exam item: Entry Cc1nc2ccc(Oc3ccc(F)cc3)cc2c(=O)n1C[C@H]1CCCN(C(C)C)C1.Cl needs its Population Mitotic Cells (%) filled in; supply it.
Marked response: 45

Further cases:
Exam item: Entry Cc1ccc(-c2ccc(F)cc2COc2ccc(CCC(=O)O)cc2)cc1 needs its Population Mitotic Cells (%) filled in; supply it.
Marked response: 67

Exam item: Entry CN1CCN2c3ncccc3Cc3ccccc3C2C1 (stereo unspecified) needs its Population Mitotic Cells (%) filled in; supply it.
Marked response: 54

Exam item: Entry O=C1COc2nccc(-c3ccccc3F)c2CN1Cc1cc(C(F)(F)F)cc(C(F)(F)F)c1 needs its Population Mitotic Cells (%) filled in; supply it.
Marked response: 61

Exam item: Entry COc1cc(C(=O)N(CCCc2ccccc2)Cc2ccc(CC(=O)O)cc2)cc(OC)c1C needs its Population Mitotic Cells (%) filled in; supply it.
Marked response: 70

Exam item: Entry CN(C)CCCc1cc(C(=O)Nc2ccc(-c3ccncc3)cc2)ccc1O.Cl.Cl needs its Population Mitotic Cells (%) filled in; supply it.
Marked response: 68

Exam item: Entry CNC[C@H](O)c1ccc(O)c(O)c1 [EPINEPHRINE] needs its Population Mitotic Cells (%) filled in; supply it.
Marked response: 44

Exam item: Entry CCCN1CCC[C@@H]2Cc3n[nH]cc3C[C@H]21.Cl [QUINPIROLE HYDROCHLORIDE] needs its Population Mitotic Cells (%) filled in; supply it.
Marked response: 44

Exam item: Entry O=S(=O)(c1ccccc1)c1cnc2c(N3CCNCC3)cccc2c1 [INTEPIRDINE] needs its Population Mitotic Cells (%) filled in; supply it.
Marked response: 48

====

System: Fibroblast
Method summary: Multiplex assay against human fibroblast
Type: toxicity, cell-based
Condition context: 12 h, 10 µM, compound concentration 10 uM, replicate 2
Readout kind: Population Pyknosed Nuclei (%)
Quick reminder: number only, in %, skip the unit.

Exam item: Please report the measured Population Pyknosed Nuclei (%) for COc1c(C)cc(NC(=O)c2nn(Cc3ccc(F)cc3)c3c2CN(C(=O)c2ccc[nH]2)C[C@]3(C)C(N)=O)cc1C tested on Fibroblast.
Marked response: 32

Exam item: Please report the measured Population Pyknosed Nuclei (%) for CCNC1(C(N)=O)CCN(c2ncnc3c2nc(-c2ccccc2Cl)n3-c2ccc(Cl)cc2)CC1 tested on Fibroblast.
Marked response: 21

Exam item: Please report the measured Population Pyknosed Nuclei (%) for CCCn1c(=O)c2[nH]c(C3CCCC3)nc2n(CCC)c1=O tested on Fibroblast.
Marked response: 20

Exam item: Please report the measured Population Pyknosed Nuclei (%) for CSc1ccccc1N1CCN(CCCCCC(=O)NC2CCCc3ccccc32)CC1.Cl (stereo not given) tested on Fibroblast.
Marked response: 14

Exam item: Please report the measured Population Pyknosed Nuclei (%) for N[C@@]1(C(=O)O)CO[C@H]2[C@H](C(=O)O)[C@H]21 tested on Fibroblast.
Marked response: 33

Exam item: Please report the measured Population Pyknosed Nuclei (%) for Oc1c(CN2CCN(c3ccccn3)CC2)cc(Cl)c2cccnc12 tested on Fibroblast.
Marked response: 16

# next compound below
Exam item: Please report the measured Population Pyknosed Nuclei (%) for CCCC(CCC)C(=O)O tested on Fibroblast.
Marked response: 30

====

Test system: HEK-293T
Method summary: Multiplex assay against HEK293T
Format: toxicity, cell-based
Condition context: human, 24 h, 1 µM, compound concentration 1 uM, replicate 1
Readout kind: Population Healthy Nuclei (%)
Quick reminder: number only, in %, skip the unit.

Here is how some compounds turned out for Population Healthy Nuclei (%).
Exam item: Entry CSc1ccccc1N1CCN(CCCCCC(=O)NC2CCCc3ccccc32)CC1.Cl (stereo not drawn) needs its Population Healthy Nuclei (%) filled in; supply it.
Marked response: 79

Exam item: Entry CN1CCN2c3ncccc3Cc3ccccc3C2C1 (stereo not drawn) [MIRTAZAPINE] needs its Population Healthy Nuclei (%) filled in; supply it.
Marked response: 80

# next compound below
Exam item: Entry CN(C)CCCc1cc(C(=O)Nc2ccc(-c3ccncc3)cc2)ccc1O.Cl.Cl needs its Population Healthy Nuclei (%) filled in; supply it.
Marked response: 78

====

Let's look at some compounds and their measured Total Cell Count.
Tested on: HEK-293T
Method summary: Multiplex assay against HEK293T
Type: toxicity, cell-based
Condition context: human, 12 h, 1 µM, compound concentration 1 uM, replicate 2
Lab note: record the figure alone, no unit after it.

Exam item: Please report the measured Total Cell Count for Cc1ccc(F)cc1C(=O)Nc1ccc(C(=O)N2Cc3cccn3Cc3ccccc32)c(Cl)c1 [LIXIVAPTAN] tested on HEK-293T.
Marked response: 335

Exam item: Please report the measured Total Cell Count for O=C1COc2nccc(-c3ccccc3F)c2CN1Cc1cc(C(F)(F)F)cc(C(F)(F)F)c1 tested on HEK-293T.
Marked response: 333

Exam item: Please report the measured Total Cell Count for O=S(=O)(c1ccccc1)c1cnc2c(N3CCNCC3)cccc2c1 [INTEPIRDINE] tested on HEK-293T.
Marked response: 336

Exam item: Please report the measured Total Cell Count for Cc1ccc(/C(=C\CN2CCCC2)c2ccccn2)cc1 [TRIPROLIDINE] tested on HEK-293T.
Marked response: 446

Exam item: Please report the measured Total Cell Count for COc1ccc2c(c1)C(C(=O)N(Cc1ccc(N(C)C)cc1)c1ccc(C(C)C)cc1)CCC2.Cl (stereo not given) tested on HEK-293T.
Marked response: 330

Exam item: Please report the measured Total Cell Count for CCCC(CCC)C(=O)O [VALPROIC ACID] tested on HEK-293T.
Marked response: 367

Further cases:
Exam item: Please report the measured Total Cell Count for CN1CCN2c3ncccc3Cc3ccccc3C2C1 (stereo not given) [MIRTAZAPINE] tested on HEK-293T.
Marked response: 329

Exam item: Please report the measured Total Cell Count for CCCN1CCC[C@@H]2Cc3n[nH]cc3C[C@H]21.Cl [QUINPIROLE HYDROCHLORIDE] tested on HEK-293T.
Marked response: 294

Exam item: Please report the measured Total Cell Count for C[C@@H]1C[C@H]2[C@@H]3CCC4=CC(=O)C=C[C@]4(C)[C@@]3(F)[C@@H](O)C[C@]2(C)[C@@]1(O)C(=O)CO [DEXAMETHASONE] tested on HEK-293T.
Marked response: 372

Exam item: Please report the measured Total Cell Count for CC(=O)NCCc1c(Cc2ccccc2)[nH]c2ccccc12 [LUZINDOLE] tested on HEK-293T.
Marked response: 304

====

Tested on: Fibroblast
Method summary: Multiplex assay against human fibroblast
Format: toxicity, cell-based
Condition context: 12 h, 1 µM, compound concentration 1 uM, replicate 1
Let's look at some compounds and their measured Population Normal (%).
Quick reminder: number only, in %, skip the unit.

Here is how some compounds turned out for Population Normal (%).
Exam item: Entry O=C(NCCO)c1cccc(-c2cc(Nc3ccc(OC(F)(F)F)cc3)ncn2)c1 needs its Population Normal (%) filled in; supply it.
Marked response: 96

Exam item: Entry O=C(O)Cc1ccccc1Nc1c(Cl)cccc1Cl needs its Population Normal (%) filled in; supply it.
Marked response: 99

Exam item: Entry CC1(COc2ccc3c(c2)ncn3-c2ccc3cccc(N4CCC(N)CC4)c3n2)COC1 needs its Population Normal (%) filled in; supply it.
Marked response: 97

Exam item: Entry N#Cc1c(N)nc(SCc2csc(-c3ccc(Cl)cc3)n2)c(C#N)c1-c1ccc(OCCO)cc1 needs its Population Normal (%) filled in; supply it.
Marked response: 97

Exam item: Entry CCCC(CCC)C(=O)O needs its Population Normal (%) filled in; supply it.
Marked response: 96

Exam item: Entry Cc1ccc(C(C)(O)c2nc3ccccc3s2)c(C)c1 (stereo not drawn) needs its Population Normal (%) filled in; supply it.
Marked response: 99

Exam item: Entry CC(C)(C)c1ccc(S(=O)(=O)Nc2ccc(Cl)cc2C(=O)c2cc[n+]([O-])cc2)cc1 needs its Population Normal (%) filled in; supply it.
Marked response: 97

Exam item: Entry CCNC1(C(N)=O)CCN(c2ncnc3c2nc(-c2ccccc2Cl)n3-c2ccc(Cl)cc2)CC1 needs its Population Normal (%) filled in; supply it.
Marked response: 93

Exam item: Entry COc1cc(NC(=O)CCN2CCC(OC(=O)Nc3ccccc3-c3ccccc3)CC2)c(Cl)cc1CNC[C@H](O)c1ccc(O)c2[nH]c(=O)ccc12 needs its Population Normal (%) filled in; supply it.
Marked response: 97

Exam item: Entry Cc1ccccc1C(=O)Nc1ccc(C(=O)N2CCCC(N(C)C)c3ccccc32)cc1.Cl (stereo not drawn) needs its Population Normal (%) filled in; supply it.
Marked response: 100

Further cases:
Exam item: Entry COc1c(C)cc(NC(=O)c2nn(Cc3ccc(F)cc3)c3c2CN(C(=O)c2ccc[nH]2)C[C@]3(C)C(N)=O)cc1C needs its Population Normal (%) filled in; supply it.
Marked response: 97

Exam item: Entry COc1ccc2c(c1)C(C(=O)N(Cc1ccc(N(C)C)cc1)c1ccc(C(C)C)cc1)CCC2.Cl (stereo not drawn) needs its Population Normal (%) filled in; supply it.
Marked response: 98

Exam item: Entry CN1CCN(c2nc3cc(C(F)(F)F)ccc3n3cccc23)CC1.O=C(O)/C=C\C(=O)O.O=C(O)/C=C\C(=O)O needs its Population Normal (%) filled in; supply it.
Marked response: 99
